Source: patent US20250320312A1

Target: T1, Peptide 8: Biotin-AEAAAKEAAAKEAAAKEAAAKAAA-Tyr-acid (N-terminal biotin; C-terminal acid; no PC)
T1 construct: control peptide without PC
T1 peptide: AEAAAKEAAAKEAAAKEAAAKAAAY
Test: scFv ELISA
readoutName: OD450 (OD450)
Numeric answer only, unit OD450 assumed.

OD450 recorded for this binder, PcOxP_DB01_D06 (scFv, V domains shown, scFv in periplasmic extract) VH: EVQLLESGGGLVQPGGSLRLSCAASGFTFSDFYMEWVRQAPGKGLEWVAASRNKANDYTTEYADSVKGRFTISRDNSKNTLYLQMNSLRAEDTAVYYCARDYYGSSYWYFDSWGQGTLVTVSS VL: DIVMTQSPDSLAVSLGERATINCTASESLYSSKHKVHYLAWYQQKPGQPPKLLIYGASNRYIGVPDRFSGSGSGTDFTLTISSLQAEDVAVYYCAQFYIYPLTFGGGTKVEIK , is 0.04

OD450 recorded for this binder, PcOxP_DB01_E03 (scFv, V domains shown, scFv in periplasmic extract) VH: EVQLLESGGGLVQPGGSLRLSCAASGFGFSDFYMEWVRQAPGKGLEWVGASRNKHNDYTTEYADSVKGRFTISRDNSKNTLYLQMNSLRAEDTAVYYCARDYYGSSYWYFDVWGQGTLVTVSS VL: DIVMTQSPDSLAVSLGERATINCKSSESVYSSKHKKHYLAWYQQKPGQPPKLLIYGASNRYIGVPDRFSGSGSGTDFTLTISSLQAEDVAVYYCAQFYSYPLTFGGGTKVEIK , is 0.05

OD450 recorded for this binder, PcOxP_DB03_H03 (scFv, V domains shown, scFv in periplasmic extract) VH: EVQLLESGGGLVQPGGSLRLSCAASGFTGSDFYMEWVRQAPGKGLEWVAASRNKWNDYTTEYADSVKGRFTISRDNSKNTLYLQMNSLRAEDTAVYYCARDYYGSSYWYFDVWGQGTLVTVSS VL: DIQMTQSPSSLSASVGDRVTITCTASESLSSSKHKHYLAWYQQKPGKAPKLLIYGASSRYSGVPSRFSGSGSGTDFTLTISSLQPEDFATYYCAQFYSYPLTFGGGTKVEIK , is 0.07
